Data origin, for the record: patent US12509453B2

study_target: BRG-1 (Homo sapiens)
Construct: made in house; host or cells: High Five insect cells
assay: ATPase catalytic activity assay (ADP-Glo), BRG-1
Type: biochemical
particulars: 30 nM BRG-1, 400 μM ATP, read-out: BRG1 Max % Inhibition
Some compounds, each annotated with its measured Emax.

{"molecular_string": "Cc1cc(-c2cccc(-c3csc(NC(=O)CNC(=O)c4cn(S(=O)(=O)C(C)C)c5ccccc45)n3)c2)cc(C)n1", "Emax": "> 60%"}
{"molecular_string": "CS(=O)(=O)n1cc(C(=O)NCC(=O)Nc2nc(-c3cccc(N4CCC(O)CC4)c3)cs2)c2ccccc21", "Emax": "< 30%"}
{"molecular_string": "Cc1cc(C(=O)NCC(=O)Nc2nc(-c3cccc(N4C[C@@H](C)O[C@@H](C)C4)n3)cs2)cn1S(=O)(=O)C(C)C", "Emax": "> 70%"}
{"molecular_string": "Cc1cc(-c2cccc(-c3csc(NC(=O)CNC(=O)c4cc(C)n(S(=O)(=O)C(C)C)c4)n3)c2)cc(C)n1", "Emax": "> 95%"}

====

study_target: BRG-1 (Homo sapiens, UniProt P51532)
Construct: made in house; host or cells: High Five insect cells
Sequence (P51532 whole entry): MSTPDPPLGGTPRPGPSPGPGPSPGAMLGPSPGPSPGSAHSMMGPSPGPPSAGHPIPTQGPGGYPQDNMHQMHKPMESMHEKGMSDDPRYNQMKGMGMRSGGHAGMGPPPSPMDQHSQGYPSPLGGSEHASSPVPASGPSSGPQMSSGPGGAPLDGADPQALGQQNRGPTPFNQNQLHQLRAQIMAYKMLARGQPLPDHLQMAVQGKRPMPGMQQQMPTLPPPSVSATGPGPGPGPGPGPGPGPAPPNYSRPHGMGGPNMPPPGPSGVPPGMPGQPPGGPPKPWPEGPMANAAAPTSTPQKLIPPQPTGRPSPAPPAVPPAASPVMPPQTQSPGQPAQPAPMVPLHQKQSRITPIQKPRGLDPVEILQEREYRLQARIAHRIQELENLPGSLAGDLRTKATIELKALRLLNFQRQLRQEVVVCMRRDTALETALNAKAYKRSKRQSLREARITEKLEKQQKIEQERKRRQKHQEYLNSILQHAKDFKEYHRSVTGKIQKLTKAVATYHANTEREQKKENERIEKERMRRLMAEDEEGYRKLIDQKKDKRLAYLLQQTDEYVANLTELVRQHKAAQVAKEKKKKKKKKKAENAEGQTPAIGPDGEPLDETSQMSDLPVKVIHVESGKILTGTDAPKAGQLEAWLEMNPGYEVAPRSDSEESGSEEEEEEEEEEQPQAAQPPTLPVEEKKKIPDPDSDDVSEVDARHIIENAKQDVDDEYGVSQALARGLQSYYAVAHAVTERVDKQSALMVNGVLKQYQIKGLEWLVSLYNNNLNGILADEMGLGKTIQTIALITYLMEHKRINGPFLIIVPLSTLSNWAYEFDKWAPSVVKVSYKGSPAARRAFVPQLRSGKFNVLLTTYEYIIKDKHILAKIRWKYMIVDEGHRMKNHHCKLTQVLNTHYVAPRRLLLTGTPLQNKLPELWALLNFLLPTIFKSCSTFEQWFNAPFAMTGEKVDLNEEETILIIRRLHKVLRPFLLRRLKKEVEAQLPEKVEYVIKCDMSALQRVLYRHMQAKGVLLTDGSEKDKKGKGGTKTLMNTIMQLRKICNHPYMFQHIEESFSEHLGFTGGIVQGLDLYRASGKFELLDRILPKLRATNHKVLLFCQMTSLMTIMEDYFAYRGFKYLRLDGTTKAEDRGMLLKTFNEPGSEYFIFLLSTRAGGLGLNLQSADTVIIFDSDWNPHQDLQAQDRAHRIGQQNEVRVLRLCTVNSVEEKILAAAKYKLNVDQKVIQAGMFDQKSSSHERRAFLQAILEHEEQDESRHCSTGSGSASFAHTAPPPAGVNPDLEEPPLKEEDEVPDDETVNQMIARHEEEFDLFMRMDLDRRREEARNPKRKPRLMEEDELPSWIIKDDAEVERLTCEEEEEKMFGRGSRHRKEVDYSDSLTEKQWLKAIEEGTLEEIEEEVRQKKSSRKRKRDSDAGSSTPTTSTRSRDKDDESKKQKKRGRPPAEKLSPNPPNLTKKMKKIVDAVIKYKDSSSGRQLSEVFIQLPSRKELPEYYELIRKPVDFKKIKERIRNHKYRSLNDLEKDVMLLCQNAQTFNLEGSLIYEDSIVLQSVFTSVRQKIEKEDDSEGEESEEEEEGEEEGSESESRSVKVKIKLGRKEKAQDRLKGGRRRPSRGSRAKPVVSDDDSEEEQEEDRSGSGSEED
assay: ATPase catalytic activity assay (ADP-Glo), BRG-1
Assay type: biochemical
particulars: 30 nM BRG-1, 400 μM ATP, 20 nM salmon sperm DNA, read-out: BRG1 IP50 (μM)*

{"compound": "Cc1cc(-c2cccc(-c3csc(NC(=O)CNC(=O)c4cn(S(C)(=O)=O)c5ccccc45)n3)n2)ncn1 [Compound 23]", "IC50": "1 to 5 µM"}
{"compound": "C[C@@H]1CN(c2cccc(-c3csc(NC(=O)CNC(=O)c4cnn(C(C)(C)C)c4Cl)n3)c2)C[C@H](C)O1 [Compound 43]", "IC50": "0.1 to 1 µM"}
{"compound": "Cc1nccc(-c2cccc(-c3csc(NC(=O)CNC(=O)c4cn(S(=O)(=O)C(C)C)c(C)c4C)n3)c2)n1 [Compound 17]", "IC50": "0.1 to 1 µM"}
{"compound": "Cc1c(C(=O)NCC(=O)Nc2nc(-c3cccc(N4C[C@@H](C)O[C@@H](C)C4)c3)cs2)cn(S(C)(=O)=O)c1C [Compound 15]", "IC50": "0.1 to 1 µM"}
{"compound": "Cc1cc(C(=O)NCC(=O)Nc2nc(-c3cccc(N4C[C@@H](C)O[C@@H](C)C4)c3)cs2)cn1S(=O)(=O)C(C)C [Compound 8]", "IC50": "0.1 to 1 µM"}
{"compound": "CC(C)S(=O)(=O)n1cc(C(=O)NCC(=O)Nc2nc(-c3cc(F)cc(N4C[C@@H](C)O[C@@H](C)C4)c3)cs2)c2ccccc21 [Compound 21]", "IC50": "> 5 µM"}

====

study_target: BRG-1 (Homo sapiens, UniProt P51532)
Construct: made in house; host or cells: High Five insect cells
assay: ATPase catalytic activity assay (ADP-Glo), BRG-1
Type: biochemical
particulars: 30 nM BRG-1, 400 μM ATP, read-out: BRG1 Max % Inhibition
Each item that follows carries a reported Emax.
quantity: Emax

{"molecular_string": "Cc1nccc(-c2cccc(-c3csc(NC(=O)CNC(=O)c4cc(Cl)n(S(=O)(=O)C(C)C)c4)n3)n2)n1", "study_target": "BRG-1 (Homo sapiens, UniProt P51532)", "recorded_value": "< 30%"}
{"molecular_string": "Cc1cc(-c2cccc(-c3csc(NC(=O)CNC(=O)c4cn(S(C)(=O)=O)c5ccccc45)n3)c2)cc(C)n1", "study_target": "BRG-1 (Homo sapiens, UniProt P51532)", "recorded_value": "> 90%"}
{"molecular_string": "Cc1c(C(=O)NCC(=O)Nc2nc(-c3cccc(-c4ccncc4)c3)cs2)cn(S(=O)(=O)C(C)C)c1C", "study_target": "BRG-1 (Homo sapiens, UniProt P51532)", "recorded_value": "< 30%"}
{"molecular_string": "Cc1nccc(-c2cccc(-c3csc(NC(=O)CNC(=O)c4cn(S(C)(=O)=O)c5ccccc45)n3)n2)n1", "study_target": "BRG-1 (Homo sapiens, UniProt P51532)", "recorded_value": "> 40%"}
{"molecular_string": "Cc1cc(C(=O)NCC(=O)Nc2nc(-c3cccc(-c4ccn(C)n4)c3)cs2)cn1S(=O)(=O)C(C)C", "study_target": "BRG-1 (Homo sapiens, UniProt P51532)", "recorded_value": "> 50%"}
{"molecular_string": "Cc1nccc(-c2cccc(-c3csc(NC(=O)CNC(=O)c4cc(Cl)n(S(=O)(=O)C(C)C)c4)n3)c2)n1", "study_target": "BRG-1 (Homo sapiens, UniProt P51532)", "recorded_value": "> 90%"}
{"molecular_string": "Cc1cc(-c2cccc(-c3csc(NC(=O)CNC(=O)c4cc(Cl)n(S(=O)(=O)C(C)C)c4)n3)n2)ncn1", "study_target": "BRG-1 (Homo sapiens, UniProt P51532)", "recorded_value": "> 60%"}

====

Readings of IC50 for the listed molecules
study_target: BRG-1 (Homo sapiens, UniProt P51532)
Construct: made in house; host or cells: High Five insect cells
assay: ATPase catalytic activity assay (ADP-Glo), BRG-1
Assay type: biochemical
particulars: 30 nM BRG-1, 400 μM ATP, 20 nM salmon sperm DNA, read-out: BRG1 IP50 (μM)*
quantity: IC50

{"molecular_string": "Cc1cc(-c2cccc(-c3csc(NC(=O)CNC(=O)c4cn(S(=O)(=O)C(C)C)c(C)c4C)n3)c2)nc(C)n1", "quantity": "IC50", "recorded_value": "0.1 to 1 µM"}
{"molecular_string": "CC(C)S(=O)(=O)n1cc(C(=O)NCC(=O)Nc2nc(-c3cccc(N4CCC(O)CC4)c3)cs2)cc1Cl", "quantity": "IC50", "recorded_value": "1 to 5 µM"}
{"molecular_string": "CC(C)S(=O)(=O)n1cc(C(=O)NCC(=O)Nc2nc(-c3cccc(-c4ccncc4)c3)cs2)c(Cl)c1Cl", "quantity": "IC50", "recorded_value": "> 5 µM"}
{"molecular_string": "C[C@@H]1CN(c2cccc(-c3csc(NC(=O)CNC(=O)c4cc(Cl)n(S(C)(=O)=O)c4)n3)c2)C[C@H](C)O1", "quantity": "IC50", "recorded_value": "< 0.1 µM"}
{"molecular_string": "Cc1cc(-c2cccc(-c3csc(NC(=O)CNC(=O)c4cn(S(=O)(=O)C(C)C)c5ccccc45)n3)c2)cc(C)n1", "quantity": "IC50", "recorded_value": "1 to 5 µM"}
{"molecular_string": "CC(C)S(=O)(=O)n1cc(C(=O)NCC(=O)Nc2nc(-c3cccc(-c4ccncc4)c3)cs2)c2ccccc21", "quantity": "IC50", "recorded_value": "> 5 µM"}
{"molecular_string": "Cc1cc(C(=O)NCC(=O)Nc2nc(-c3cccc(-c4ccn(C)n4)c3)cs2)cn1S(=O)(=O)C(C)C", "quantity": "IC50", "recorded_value": "1 to 5 µM"}

====

// values below are reported Emax
study_target: BRG-1 (Homo sapiens, UniProt P51532)
Construct: made in house; host or cells: High Five insect cells
assay: ATPase catalytic activity assay (ADP-Glo), BRG-1
Assay type: biochemical
particulars: 30 nM BRG-1, 400 μM ATP, read-out: BRG1 Max % Inhibition
quantity: Emax

{"compound": "Cc1cc(C(=O)NCC(=O)Nc2nc(-c3cccc(N4C[C@@H](C)O[C@@H](C)C4)c3)cs2)cn1S(=O)(=O)C(C)C [Compound 8]", "study_target": "BRG-1 (Homo sapiens, UniProt P51532)", "recorded_value": "> 70%"}
{"compound": "C[C@@H]1CN(c2cccc(-c3csc(NC(=O)CNC(=O)c4cn(S(C)(=O)=O)c5ccccc45)n3)c2)C[C@H](C)O1 [Compound 26]", "study_target": "BRG-1 (Homo sapiens, UniProt P51532)", "recorded_value": "> 60%"}
{"compound": "Cc1cc(-c2cccc(-c3csc(NC(=O)CNC(=O)c4cn(S(=O)(=O)C(C)C)c5c4CCCC5)n3)c2)cc(C)n1 [Compound 20]", "study_target": "BRG-1 (Homo sapiens, UniProt P51532)", "recorded_value": "< 30%"}
{"compound": "Cc1c(C(=O)NCC(=O)Nc2nc(-c3cccc(N4C[C@@H](C)O[C@@H](C)C4)c3)cs2)cn(S(C)(=O)=O)c1C [Compound 15]", "study_target": "BRG-1 (Homo sapiens, UniProt P51532)", "recorded_value": "> 90%"}
{"compound": "Cc1nccc(-c2cccc(-c3csc(NC(=O)CNC(=O)c4cc(C)n(S(=O)(=O)C(C)C)c4)n3)c2)n1 [Compound 16]", "study_target": "BRG-1 (Homo sapiens, UniProt P51532)", "recorded_value": "> 95%"}
{"compound": "CC(C)S(=O)(=O)n1cc(C(=O)NCC(=O)Nc2nc(-c3cccc(-c4ccncc4)c3)cs2)c(Cl)c1Cl [Compound 30]", "study_target": "BRG-1 (Homo sapiens, UniProt P51532)", "recorded_value": "< 30%"}
{"compound": "CS(=O)(=O)n1cc(C(=O)NCC(=O)Nc2nc(-c3cccc(-c4ccncc4)c3)cs2)c2ncccc21 [Compound 3]", "study_target": "BRG-1 (Homo sapiens, UniProt P51532)", "recorded_value": "> 40%"}
{"compound": "CC(C)S(=O)(=O)n1cc(C(=O)NCC(=O)Nc2nc(-c3cccc(N4C[C@@H](C)O[C@@H](C)C4)n3)cs2)cc1Cl [Compound 37]", "study_target": "BRG-1 (Homo sapiens, UniProt P51532)", "recorded_value": "> 40%"}
{"compound": "Cc1cc(-c2cccc(-c3csc(NC(=O)CNC(=O)c4cn(S(=O)(=O)C(C)C)c(C)c4C)n3)c2)ccn1 [Compound 13]", "study_target": "BRG-1 (Homo sapiens, UniProt P51532)", "recorded_value": "> 80%"}
{"compound": "CC(C)S(=O)(=O)n1cc(C(=O)NCC(=O)Nc2nc(-c3cccc(N4C[C@@H](C)O[C@@H](C)C4)c3)cs2)cc1Cl [Compound 36]", "study_target": "BRG-1 (Homo sapiens, UniProt P51532)", "recorded_value": "> 60%"}
{"compound": "Cc1nccc(-c2cccc(-c3csc(NC(=O)CNC(=O)c4cn(S(C)(=O)=O)c5c4CCCC5)n3)n2)n1 [Compound 18]", "study_target": "BRG-1 (Homo sapiens, UniProt P51532)", "recorded_value": "< 30%"}
{"compound": "Cc1cc(-c2cccc(-c3csc(NC(=O)CNC(=O)c4cn(S(=O)(=O)C(C)C)c(C)c4C)n3)c2)cc(C)n1 [Compound 12]", "study_target": "BRG-1 (Homo sapiens, UniProt P51532)", "recorded_value": "> 80%"}
{"compound": "Cc1cc(-c2cccc(-c3csc(NC(=O)CNC(=O)c4cc(Cl)n(S(=O)(=O)C(C)C)c4)n3)c2)nc(C)n1 [Compound 32]", "study_target": "BRG-1 (Homo sapiens, UniProt P51532)", "recorded_value": "> 90%"}
{"compound": "Cc1cc(-c2cccc(-c3csc(NC(=O)CNC(=O)c4cn(S(C)(=O)=O)c5ccccc45)n3)n2)ncn1 [Compound 23]", "study_target": "BRG-1 (Homo sapiens, UniProt P51532)", "recorded_value": "> 40%"}
